Test system: CAMKK2
run.parameters: concentration: 1 μM, replicates: in singlicate; n = 1;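 further: KINOMEscan kinase panel screen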
Classification field: true (1) = %Inh at or over 20%; false (0) = %Inh under 20%.

Query string: Is it the case that COc1cc2ncn(-c3cc(OCc4ccncc4Br)c(C(N)=O)s3)c2cc1OC has %Inh reaching or exceeding 20%?
Result string: false (0)

Query string: Is it the case that Cc1nnc(-c2ccc(C)c(-c3ccc(C(=O)O)cc3)c2)o1 has %Inh reaching or exceeding 20%?
Result string: false (0)

Query string: Is it the case that Cc1nnc(-c2ccc3ncn(-c4ccc(S(C)=O)cc4)c3c2)o1 (centres unmarked) has %Inh reaching or exceeding 20%?
Result string: false (0)

Query string: Is it the case that COc1ccc(-c2cc3c(C)nc(N)nc3n([C@H]3CC[C@H](OCCO)CC3)c2=O)cn1 has %Inh reaching or exceeding 20%?
Result string: false (0)

Query string: Is it the case that COC(=O)c1c(-c2ccccc2)c2cc(Br)ccc2c(=O)n1Cc1ccc(S(C)(=O)=O)cc1 has %Inh reaching or exceeding 20%?
Result string: true (1)

Query string: Is it the case that Cl.c1ccc(Cn2cnc3cc(Nc4ncnc5ccccc45)ccc32)cc1 has %Inh reaching or exceeding 20%?
Result string: true (1)

Query string: Is it the case that COc1cc2nccc(Nc3cccc(Oc4ccccc4)c3)c2cc1OC.Cl has %Inh reaching or exceeding 20%?
Result string: false (0)

Query string: Is it the case that CCc1ccc(-c2ccc3c(c2)-c2nn(C)cc2S(=O)(=O)N3C)cc1 has %Inh reaching or exceeding 20%?
Result string: false (0)

====

Would you mind telling me the reported %Inh of each entry?
Test system: PIKFYVE
run.parameters: concentration: 1 μM, replicates: in singlicate; n = 1
Just the number please, in %, no unit attached.

Query string: Look at this molecule and give its reported %Inh. O=C(Nc1n[nH]c2cc(-c3ccccc3F)ccc12)C1CC1
Result string: 10

Query string: Look at this molecule and give its reported %Inh. Nc1n[nH]c2nnc(-c3ccccc3)c(-c3ccccc3)c12
Result string: 12

Query string: Look at this molecule and give its reported %Inh. C[C@@H]1CC[C@H](C(=O)NC2CCCCC2)CN1c1cc(-c2ccc3c(N)n[nH]c3c2)nc(N)n1
Result string: 0

Query string: Look at this molecule and give its reported %Inh. Cl.c1ccc(Cn2cnc3cc(Nc4ncnc5ccccc45)ccc32)cc1
Result string: 6

Query string: Look at this molecule and give its reported %Inh. Cc1ccc(-c2ccc3c(ccc4sc5c(c43)NC[C@@H](C)N=C5N(C)C)n2)cn1
Result string: 42

Query string: Look at this molecule and give its reported %Inh. COc1cc(Nc2ccnc3ccc(C(F)(F)F)cc23)cc(OC)c1OC
Result string: 0

Query string: Look at this molecule and give its reported %Inh. COC(=O)c1c(-c2ccccc2)c2cc(Br)ccc2c(=O)n1Cc1ccc(S(C)(=O)=O)cc1
Result string: 0

Query string: Look at this molecule and give its reported %Inh. Nc1nc(N)c2nc(-c3ccccc3)[nH]c2n1
Result string: 12

Query string: Look at this molecule and give its reported %Inh. O=C1NC(=O)C(c2ccccc2)=C1Nc1cccc(O)c1
Result string: 0

Query string: Look at this molecule and give its reported %Inh. COc1ccc(-c2cc3c(C)nc(N)nc3n([C@H]3CC[C@H](OCCO)CC3)c2=O)cn1
Result string: 11

Query string: Look at this molecule and give its reported %Inh. COc1ccc(-c2coc3ccc(-c4nnc(SCc5cccc(C#N)c5)o4)cc23)cc1
Result string: 0

Query string: Look at this molecule and give its reported %Inh. Fc1cccc(CSc2nnc(-c3ccc4c(c3)CCO4)o2)c1
Result string: 7

Query string: Look at this molecule and give its reported %Inh. COc1ccc(-c2cc3c(C)nc(N)nc3n([C@H]3CC[C@H](O)CC3)c2=O)cn1
Result string: 45

Query string: Look at this molecule and give its reported %Inh. Cn1c(=O)c(F)c(Nc2ccc(I)cc2F)c2c(=O)n(OC[C@H](O)CO)cnc21
Result string: 6

Query string: Look at this molecule and give its reported %Inh. CCCNC(=O)Nc1ccc(Oc2ncnc3ccn(C)c23)cc1
Result string: 0

Query string: Look at this molecule and give its reported %Inh. Nc1ncnc2c1ncn2-c1cccc(F)c1
Result string: 17

Query string: Look at this molecule and give its reported %Inh. CCc1ccc(-c2ccc3c(c2)-c2nn(C)cc2S(=O)(=O)N3C)cc1
Result string: 16

Query string: Look at this molecule and give its reported %Inh. O=C(Nc1n[nH]c2nc(-c3ccccc3)c(Cl)cc12)C1CC1
Result string: 0

Query string: Look at this molecule and give its reported %Inh. COc1cc(Nc2nccc(N3CCC(NC(=O)C4COc5ccccc5O4)C3)n2)cc(OC)c1OC (stereo not drawn)
Result string: 21

Query string: Look at this molecule and give its reported %Inh. Nc1ncnc2c1ncn2-c1cccc2ccccc12
Result string: 40

Query string: Look at this molecule and give its reported %Inh. COc1cc2ncn(-c3cc(OCc4ccc(S(C)(=O)=O)cc4)c(C(N)=O)s3)c2cc1OC
Result string: 14

====

Tested on: RSK4(Kin.Dom.1-N-terminal)
Construct: gene RPS6KA6
run.parameters: concentration: 1 μM, replicates: in singlicate; n = 1
measured.property: %Inh (%)
Just the number please, in %, no unit attached.

Query string: Look at this compound and give its reported %Inh. CC(C)(C)c1ccc(C(=O)Nc2cn3cc(-c4ccccc4)ccc3n2)cc1
Result string: 0

Query string: Look at this compound and give its reported %Inh. Nc1ncnc2c1ncn2-c1ccc(Cl)cc1 [AH2635]
Result string: 0

Query string: Look at this compound and give its reported %Inh. Cl.c1ccc(Cn2cnc3cc(Nc4ncnc5ccccc45)ccc32)cc1 [GW272142]
Result string: 0

Query string: Look at this compound and give its reported %Inh. COc1cc2ncn(-c3cc(OCCCc4ccccc4)c(C(N)=O)s3)c2cc1OC [GSK205189]
Result string: 12

Query string: Look at this compound and give its reported %Inh. Cc1ccccc1COc1cc(-n2cnc3cc(Cl)ccc32)sc1C(N)=O [GW813349]
Result string: 0

Query string: Look at this compound and give its reported %Inh. CCn1c(-c2ccoc2)nc2cnccc21 [SB-733887]
Result string: 0

Query string: Look at this compound and give its reported %Inh. COC(=O)c1c(-c2ccccc2)c2cc(Br)ccc2c(=O)n1Cc1ccc(S(C)(=O)=O)cc1
Result string: 24

Query string: Look at this compound and give its reported %Inh. CCC(=O)c1c(-c2ccccc2)c2cc(Cl)ccc2c(=O)n1Cc1ccc(C(=O)O)cc1
Result string: 0

Query string: Look at this compound and give its reported %Inh. O=C(NCCNc1ccnc(Nc2ccc(F)cc2)n1)Nc1ccc2c(c1)OCO2 [GSK1379882]
Result string: 0

Query string: Look at this compound and give its reported %Inh. CCCC(=O)Nc1n[nH]c2ncc(-c3cccc4ccccc34)cc12 [SB-642057]
Result string: 0

Query string: Look at this compound and give its reported %Inh. CN1C(=O)C(Nc2ccccc2)=C(c2ccccc2)C1=O [SB-300079]
Result string: 10

====

Would you mind telling me the reported %Inh of each entry?
System: PIK3CG
run.parameters: concentration: 1 μM, replicates: in singlicate; n = 1
Just the number please, in %, no unit attached.

Query string: Look at this molecule and give its reported %Inh. COc1cc2nccc(Nc3ccc(OCc4ccc(NC(C)=O)cc4)cc3)c2cc1OC.Cl [GW440135]
Result string: 7

Query string: Look at this molecule and give its reported %Inh. COC(=O)c1c(-c2ccccc2)c2cc(C)ccc2c(=O)n1Cc1ccccc1
Result string: 0

Query string: Look at this molecule and give its reported %Inh. CCC(=O)c1c(-c2ccccc2)c2cc(Cl)ccc2c(=O)n1Cc1cc(S(C)(=O)=O)n(CCC(C)(C)O)n1
Result string: 17

Query string: Look at this molecule and give its reported %Inh. CCCC(=O)Nc1n[nH]c2ncc(-c3cccc4ccccc34)cc12 [SB-642057]
Result string: 10

Query string: Look at this molecule and give its reported %Inh. CCS(=O)(=O)c1ccc(OC)c(Nc2ncc(-c3ccc(F)cc3)o2)c1.Cl [GW591947]
Result string: 0

Query string: Look at this molecule and give its reported %Inh. CCc1ccc(-c2ccc3c(c2)-c2nn(C)cc2S(=O)(=O)N3C)cc1
Result string: 0

Query string: Look at this molecule and give its reported %Inh. COc1ccc(-n2cnc3c(N)ncnc32)cc1 [SKF-97236]
Result string: 51

Query string: Look at this molecule and give its reported %Inh. Cc1nn2c(=O)cc(N3CCOCC3)nc2n1Cc1cccc(Cl)c1Cl [GSK2342769]
Result string: 69

Query string: Look at this molecule and give its reported %Inh. Fc1cccc(CSc2nnc(-c3ccc4c(c3)CCO4)o2)c1
Result string: 10

Query string: Look at this molecule and give its reported %Inh. O=c1cc(N2CCOCC2)nc2n(Cc3ccc(F)c(Cl)c3)ccn12 [GSK2297099]
Result string: 23

Query string: Look at this molecule and give its reported %Inh. CCC(=O)c1c(-c2ccccc2)c2cc(Cl)ccc2c(=O)n1Cc1ccc(C(=O)O)cc1
Result string: 0

Query string: Look at this molecule and give its reported %Inh. Cc1ccccc1COc1cc(-n2cnc3cc(Cl)ccc32)sc1C(N)=O [GW813349]
Result string: 24

Query string: Look at this molecule and give its reported %Inh. CCc1nc(-c2cccc(C)c2)c(-c2ccncc2)s1
Result string: 0
